Sourced from patent US20240424113A1

# Kd per entry for Hsp90 Nuclear Binding Domain (NBD) (Aspergillus fumigatus, UniProt P40292)
# value in µM; strip the unit string

# compound, reportedResult
records = [
    ("Nc1nc2sc(CNC(=O)C3CCN(CC(O)(Cn4cncn4)c4ccc(F)cc4F)CC3)cc2n(-c2ccc3c(c2)N(c2ccccc2)CCO3)c1=O (stereo not drawn) [Compound I-140]", 0.434),
]

Bench note, Hsp90 Nuclear Binding Domain (NBD) (Aspergillus fumigatus, UniProt P40292): Nc1nc2sc(CNC3CCN(CC(O)(Cn4cncn4)c4ccc(F)cc4F)CC3)cc2n(-c2ccc3c(c2)N(c2ccccc2)CCO3)c1=O (stereo not drawn) [Compound I-47] , Kd reads 0.55

Bench note, Hsp90 Nuclear Binding Domain (NBD) (Aspergillus fumigatus, UniProt P40292): Nc1nc2sc(C(=O)NC[C@H]3CO[C@](Cn4cncn4)(c4ccc(F)cc4F)C3)cc2n(-c2ccc3c(c2)N(c2ccccc2)CCO3)c1=O [Compound I-27] , Kd reads 0.0134

====

# Test system: CaCl2
# procedureText: Antifungal sensitivity testing (broth microdilution MIC)
# Assay type: cell-based
# settings: Table 4; 96-well broth microdilution
List of log10(MIC50) values.
Each number you see is log10 of MIC50, and the unit inside the log is µM.

Observe how each entry below is paired with its result.
# compound, targetOfAssay, reportedResult
rows = [
    ("Cc1ccc(-n2c(=O)c(N)nc3sc(C(=O)NC4CCN(C[C@](O)(Cn5cncn5)c5ccc(F)cc5F)CC4)cc32)cc1Oc1ccccc1 [Compound I-25]", "CaCl2", -0.30),
    ("Nc1nc2sc(CN[C@@H]3CCN(CC(O)(Cn4cncn4)c4ccc(F)cc4F)C3)cc2n(-c2ccc3c(c2)N(c2ccccc2)CCO3)c1=O (stereo partly drawn) [Compound I-77]", "CaCl2", 1.10),
    ("Nc1nc2sc(C(=O)NC3CCN(CC(O)(Cn4cncn4)c4ccccn4)CC3)cc2n(-c2ccc3c(c2)N(c2ccccc2)CCO3)c1=O (stereo not drawn) [Compound I-142]", "CaCl2", 1.40),
]

// log10(MIC50) value for Nc1nc2sc(CNC3CCN(CC(O)(Cn4cncn4)c4ccc(F)cc4F)CC3(F)F)cc2n(-c2ccc3c(c2)N(c2ccccc2)CCO3)c1=O (stereo not drawn) [Compound I-137] : -0.11

// log10(MIC50) value for Nc1nc2sc(CNC3CCN(C(=O)C[C@@](O)(Cn4cncn4)c4ccc(F)cc4F)CC3)cc2n(-c2ccc3c(c2)N(c2ccccc2)CCO3)c1=O [Compound I-129] : 0.85

// log10(MIC50) value for Nc1nc2sc(CNC3CCN(CC(=O)OCCC(O)(Cn4cncn4)c4ccc(F)cc4F)CC3)cc2n(-c2ccc3c(c2)N(c2ccccc2)CCO3)c1=O (stereo not drawn) [Compound I-136] : 0.80

====

# targetOfAssay: Hsp90 Nuclear Binding Domain (NBD) (Candida albicans (strain SC5314 / ATCC MYA-2876) (Yeast), UniProt P46598)
# Sequence (P46598 1-218 limits assumed): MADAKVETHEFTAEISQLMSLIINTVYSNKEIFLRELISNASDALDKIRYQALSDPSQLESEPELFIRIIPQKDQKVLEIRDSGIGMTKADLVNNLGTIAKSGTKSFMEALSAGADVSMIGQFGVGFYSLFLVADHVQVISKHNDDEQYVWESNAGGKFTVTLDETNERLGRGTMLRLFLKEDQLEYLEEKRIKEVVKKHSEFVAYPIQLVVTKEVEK
# procedureText: Surface Plasmon Resonance (SPR) binding, C. albicans Hsp90 NBD
# settings: biotinylated Hsp90 NBD on streptavidin chip, 25° C., 1:1 binding model
reportedEndpoint: pKd
Please report pKd as the negative decimal logarithm of the molar concentration, giving only the number.

Observe how each entry below is paired with its result.
# compound, reportedEndpoint, reportedResult
data = [
    ("Nc1nc2sc(CN3CCC(NCC(O)(Cn4cncn4)c4ccc(F)cc4F)CC3)cc2n(-c2ccc3c(c2)N(c2ccccc2)CCO3)c1=O (stereo not drawn)", "pKd", 6.18),
    ("Nc1nc2sc(C(=O)N[C@@H]3CCN(CCC(O)(Cn4cncn4)c4ccc(F)cc4F)C3)cc2n(-c2ccc3c(c2)N(c2ccccc2)CCO3)c1=O (stereo partly drawn)", "pKd", 8.68),
    ("Nc1nc2sc(CNC3CCN(CC(O)(Cn4cncn4)c4ccc(F)cc4F)C(=O)C3)cc2n(-c2ccc3c(c2)N(c2ccccc2)CCO3)c1=O (stereo not drawn)", "pKd", 6.47),
    ("Nc1nc2sc(CNC3CCN(CC(O)(Cn4cncn4)c4ccc(F)cc4F)CC3)cc2n(-c2ccc3c(c2)N(c2ccccc2)CCO3)c1=O (stereo not drawn)", "pKd", 6.54),
    ("Nc1nc2sc(C(=O)N[C@@H]3CCN(C[C@@](O)(Cn4cncn4)c4ccc(F)cc4F)C3)cc2n(-c2ccc3c(c2)N(c2ccccc2)CCO3)c1=O", "pKd", 9.10),
]

// pKd value for Nc1nc2sc(CN3CCN(CC(O)(Cn4cncn4)c4ccc(F)cc4F)CC3)cc2n(-c2ccc3c(c2)N(c2ccccc2)CCO3)c1=O (stereo not drawn) : 6.38

// pKd value for `Nc1nc2sc(C(=O)NC3CCN(C[C@](O)(Cn4cncn4)c4ccc(F)cc4F)CC3)cc2n(-c2ccc3c(c2)N(c2ccccc2)CCC3)c1=O` : 8.17

// pKd value for Nc1nc2sc(CN[C@H]3CCN(CC(O)(Cn4cncn4)c4ccc(F)cc4F)C3)cc2n(-c2ccc3c(c2)N(c2ccccc2)CCO3)c1=O (stereo partly drawn) : 6.06

// pKd value for Nc1nc2sc(CNC3CN(CC(O)(Cn4cncn4)c4ccc(F)cc4F)C3)cc2n(-c2ccc3c(c2)N(c2ccccc2)CCO3)c1=O (stereo not drawn) : 5.97

====

List of log10(Kd) values.
# targetOfAssay: Hsp90 Nuclear Binding Domain (NBD) (Candida albicans (strain SC5314 / ATCC MYA-2876) (Yeast), UniProt P46598)
# procedureText: Surface Plasmon Resonance (SPR) binding, C. albicans Hsp90 NBD
# settings: biotinylated Hsp90 NBD on streptavidin chip, 25° C., 1:1 binding model
Each number you see is log10 of Kd, and the unit inside the log is nM.

# compound, log10(Kd)
records = [
    ("Nc1nc2sc(CNC3CCN(CCC(O)(Cn4cncn4)c4ccc(F)cc4F)CC3)cc2n(-c2ccc3c(c2)N(c2ccccc2)CCO3)c1=O (stereo not drawn)", 2.08),
    ("Nc1nc2sc(CN[C@@H]3CCN(CCC(O)(Cn4cncn4)c4ccc(F)cc4F)C3)cc2n(-c2ccc3c(c2)N(c2ccccc2)CCO3)c1=O (stereo partly drawn)", 2.25),
    ("CC1(NC(=O)c2cc3c(nc(N)c(=O)n3-c3ccc4c(c3)N(c3ccccc3)CCO4)s2)CCN(C[C@](O)(Cn2cncn2)c2ccc(F)cc2F)CC1", 0.11),
    ("Nc1nc2sc(CNC3CCN(CC[C@@](O)(Cn4cncn4)c4ccc(F)cc4F)CC3)cc2n(-c2ccc3c(c2)N(c2ccccc2)CCO3)c1=O", 2.48),
]

// log10(Kd) value for `Nc1nc2sc(CNC3CCN(C(=O)C[C@@](O)(Cn4cncn4)c4ccc(F)cc4F)CC3)cc2n(-c2ccc3c(c2)N(c2ccccc2)CCO3)c1=O` : 2.74

// log10(Kd) value for Nc1nc2sc(C(=O)NC3CCN(CCC(O)(Cn4cncn4)c4ccc(F)cc4F)CC3)cc2n(-c2ccc3c(c2)N(c2ccccc2)CCO3)c1=O (stereo not drawn) : 1.12

// log10(Kd) value for Nc1nc2sc(CNC3CCN(CC(O)(Cn4ccnc4)c4ccc(F)cc4F)CC3)cc2n(-c2ccc3c(c2)N(c2ccccc2)CCO3)c1=O (stereo not drawn) : 2.18

// log10(Kd) value for Nc1nc2sc(CNC3CCN(CC(=O)OCCC(O)(Cn4cncn4)c4ccc(F)cc4F)CC3)cc2n(-c2ccc3c(c2)N(c2ccccc2)CCO3)c1=O (stereo not drawn) : 2.43

// log10(Kd) value for Nc1nc2sc(C(=O)NC3CCN(CC(O)(Cn4cncn4)c4ccccn4)CC3)cc2n(-c2ccc3c(c2)N(c2ccccc2)CCO3)c1=O (stereo not drawn) : 0.38

// log10(Kd) value for Nc1nc2sc(CNC3CCN(CC(O)(Cn4cncn4)c4ccccc4)CC3)cc2n(-c2ccc3c(c2)N(c2ccccc2)CCO3)c1=O (stereo not drawn) : 2.06

// log10(Kd) value for `Nc1nc2sc(C(=O)N[C@@H]3CCN(CC[C@@](O)(Cn4cncn4)c4ccc(F)cc4F)C3)cc2n(-c2ccc3c(c2)N(c2ccccc2)CCO3)c1=O` : -0.52

// log10(Kd) value for Nc1nc2sc(CN[C@H]3[C@@H]4CN(CC(O)(Cn5cncn5)c5ccc(F)cc5F)C[C@@H]43)cc2n(-c2ccc3c(c2)N(c2ccccc2)CCO3)c1=O (stereo partly drawn) : 2.92

====

# System: HepG2 cells
# procedureText: Mammalian cell toxicity (Cell Titer-Glo)
# Format: cell-based
# settings: Table 6, 48 h incubation
reportedEndpoint: HepG2 MIC50

Observe how each entry below is paired with its result.
# compound, HepG2 MIC50
data = [
    ("Nc1nc2sc(C(=O)NC[C@H]3CO[C@](Cn4cncn4)(c4ccc(F)cc4F)C3)cc2n(-c2ccc3c(c2)N(c2ccccc2)CCO3)c1=O", ">10 µM"),
    ("Cc1ccc(-n2c(=O)c(N)nc3sc(C(=O)NC4CCN(CC(O)(Cn5cncn5)c5ccc(F)cc5F)CC4)cc32)cc1Oc1ccccc1 (stereo not drawn)", ">10 µM"),
]

// below: HepG2 MIC50 requested for another compound
// HepG2 MIC50 value for CC(F)(F)COC(=O)N1Cc2nc(N)nc(-c3c(Cl)cc(Cl)cc3OCCC(O)(Cn3cncn3)c3ccc(F)cc3F)c2C1 (stereo not drawn) : >20 µM
